procedure_text: in vitro
# note: exactly -30% is not below, so it is FALSE; use TRUE for cytotoxicity at 41 h, 10 µM strictly under it

test_smiles=COc1cc([C@@H]2c3cc4c(cc3[C@H](O)[C@H]3COC(=O)[C@H]23)OCO4)cc(OC)c1OC label_value=FALSE
test_smiles=C[C@H](CCC(=O)O)[C@H]1CC[C@H]2[C@@H]3CC[C@@H]4CCCC[C@]4(C)[C@H]3CC[C@]12C label_value=FALSE
test_smiles=CC(C)CCC[C@@H](C)[C@H]1CC[C@H]2[C@@H]3CC[C@H]4CC(=O)CC[C@]4(C)[C@H]3CC[C@]12C label_value=TRUE
test_smiles=CC(=O)O[C@@H]1C[C@@]23C[C@@]24CC[C@H](O[C@@H]2OC[C@@H](O)[C@H](O)[C@H]2O)C(C)(C)[C@@H]4CC[C@H]3[C@]2(C)C[C@@H]3O[C@]4(C[C@@H](C)[C@@H]3[C@@]12C)O[C@H](O)[C@@]1(C)O[C@@H]41 label_value=TRUE
test_smiles=COc1cccc2c1cc([N+](=O)[O-])c1c(C(=O)O)cc3c(c12)OCO3 label_value=FALSE

Is cytotoxicity at 41 h, 10 µM strictly under -30% for the entry COc1cc2c(cc1OC)[C@H](C)NCC2 ?
FALSE

Cited source for all entries: paper PMC6736568
